- TEST DETAILS: Cytotoxicity against BALB/c mouse splenocytes after 48 hrs by CCK-8 assay
- Type: cell-based, Splenocyte
Threshold 30 µM: CC50 at 48 h strictly smaller gives label 1, otherwise label 0.

Please review the following examples before continuing.
SMILES STR	CATEGORY
CCCCCCc1ccc(-c2nc(-c3cc(OC)c(OC)c(OC)c3)no2)cc1	label 1
COc1cc(-c2noc(C3CC4(C3)CC(F)(F)C4)n2)cc(OC)c1OC	label 1
CCCCc1ccc(-c2nc(Cc3c[nH]c4ccccc34)no2)cc1	label 1
COc1ccc(OC)c(-c2nc(Cc3c[nH]c4ccccc34)no2)c1	label 0
Fc1ccc(-c2nc(Cc3c[nH]c4ccccc34)no2)c(C(F)(F)F)c1	label 0
COc1cc(-c2noc(-c3cc(OC)c(OC)c(OC)c3)n2)cc(OC)c1OC	label 0
COc1cc(-c2noc(-c3ccc(NC(=O)OC(C)(C)C)cc3)n2)cc(OC)c1OC	label 1
COc1ccc(Br)c(-c2nc(Cc3c[nH]c4ccccc34)no2)c1	label 0

IN: Field: below-cutoff. Rule: recorded CC50 at 48 h strictly less than 30 µM. Subject: COc1cc(-c2noc(-c3ccccc3)n2)cc(OC)c1OC
OUT: label 0

IN: Queued: CCCCc1nc(Cc2c[nH]c3ccccc23)no1
OUT: label 0

IN: Queued: O=[N+]([O-])c1ccc(-c2noc(Cc3c[nH]c4ccccc34)n2)cc1
OUT: label 0
